Every entry's value here was drawn from paper PMC10086185.

Experiment: Lipid/water partition coefficient in octanol/PBS (log D 7.4)
Format: physicochemical
Settings: pH 7.4
reported_property: logD
// no unit, no text: just the number

logD recorded for this compound, N#C[C@@H]1CC(F)(F)CN1C(=O)CNC(=O)c1ccnc2ccc([18F])cc12 [[^18F]3] , is 1.11
